Listed here are molecules together with their documented pIC50.
Test system: U937
Assay: In vitro cytotoxicity, U937 (Histiocytic Lymphoma)
Type: cell-based
Conditions: Homo sapiens, U-937; 72 h, CellTiter-Glo 2.0; read-out: Cytotoxicity IC50, U937
pIC50: −log10 of the molar value.
Measured Endpoint: pIC50

- CCOC(=O)[C@@H](N)CCc1nc2cc(N(CCCl)CCCl)ccc2n1C.Cl.Cl [Example 38]: 7.60
- CCOC(=O)[C@H](Cc1ccc(F)cc1)NC(=O)[C@H](CCc1nc2cc(N(CCCl)CCCl)ccc2n1C)NC(C)=O [Example 34]: 6.40

* * *

System: RPMI-8226
Assay: In vitro cytotoxicity, RPMI-8226 (Multiple Myeloma, resistant)
Type: cell-based
Settings: Homo sapiens, RPMI-8226; 72 h, CellTiter-Glo 2.0; read-out: Cytotoxicity IC50, RPMI-8226
Listed here are compounds together with their documented IC50.
Measured Endpoint: IC50 (µM)

- CC(C)C[C@H](NC(=O)[C@@H](N)CCc1nc2cc(N(CCCl)CCCl)ccc2n1C)C(=O)N(C)C: 0.492
- CCOC(=O)[C@H](Cc1ccc(F)cc1)NC(=O)[C@H](CCc1nc2cc(N(CCCl)CCCl)ccc2n1C)NC(C)=O: 1.45
- CCOC(=O)[C@@H](N)CCc1nc2cc(N(CCCl)CCCl)ccc2n1C.Cl.Cl: 0.676
- N[C@@H](Cc1ccc(N(CCCl)CCCl)cc1)C(=O)O [Melphalan, melphalan, reference compound]: 32.5

* * *

Tested on: SU-DHL-8
Test: In vitro cytotoxicity, SU-DHL-8 (B-cell non-Hodgkin Lymphoma)
Format: cell-based
Conditions: Homo sapiens, SU-DHL-8, 72 h, read-out: Cytotoxicity IC50, SU-DHL-8
Listed here are compounds together with their documented IC50.
Measured Endpoint: IC50 (nM)

• CCOC(=O)[C@H](CC(C)C)NC(=O)[C@@H](N)CCc1nc2cc(N(CCCl)CCCl)ccc2n1C = 19.9
• CCOC(=O)[C@H](Cc1ccc(F)cc1)NC(=O)[C@@H](N)CCc1nc2cc(N(CCCl)CCCl)ccc2n1C = 20.4
• Cn1c(CCCC(=O)O)nc2cc(N(CCCl)CCCl)ccc21 [Bendamustine, bendamustine, reference compound] = 14300
• CCOC(=O)[C@H](Cc1nc2cc(N(CCCl)CCCl)ccc2n1C)NC(=O)[C@@H](N)CC(C)C = 22.1

* * *

Listed here are molecules together with their documented log10(IC50 at 72 h).
Experiment: In vitro cytotoxicity, human peripheral blood mononuclear cells
Type: cell-based
Conditions: CellTiter-Glo 2.0, stimulated with PHA-M and IL-2, read-out: Cytotoxicity IC50, hPBMC
Protocol: All cells were cultivated in RPMI medium 1640 (IX). All media was supplemented with 10 μg/μl penicillin/streptomycin, 10% heat inactivated FBS, 0.1 mM Sodium Pyruvate, 1×MEM NEAA (ThermoFisher) and 1 mM HEPES. […] Test compounds were dissolved in 100% DMSO and added to a 384 assay plate. […] The plate was then allowed to stabilize for 20 minutes before recording the luminescence (Em filter 700 nm) in an Envision plate reader.
Measured Endpoint: log10(IC50 at 72 h) (log10 of the value in nM)

- CCOC(=O)[C@H](Cc1ccc(F)cc1)NC(=O)[C@@H](N)CCc1nc2cc(N(CCCl)CCCl)ccc2n1C: 0.88
- Cn1c(CCCC(=O)O)nc2cc(N(CCCl)CCCl)ccc21 [Bendamustine, bendamustine, reference compound]: 4.20
- CCOC(=O)[C@H](Cc1nc2cc(N(CCCl)CCCl)ccc2n1C)NC(=O)[C@@H](N)CC(C)C: 1.42
- CCOC(=O)[C@H](CC(C)C)NC(=O)[C@@H](N)CCc1nc2cc(N(CCCl)CCCl)ccc2n1C: 0.73
- N[C@@H](Cc1ccc(N(CCCl)CCCl)cc1)C(=O)O [Melphalan, melphalan, reference compound]: 3.56

* * *

Test system: THP-1
Assay: In vitro cytotoxicity, THP-1 (Acute Myeloid Leukemia)
Type: cell-based
Conditions: Homo sapiens, THP-1; 72 h, CellTiter-Glo 2.0; read-out: Cytotoxicity IC50, THP-1
Procedure: All cells were cultivated in RPMI medium 1640 (IX). All media was supplemented with 10 μg/μl penicillin/streptomycin, 10% heat inactivated FBS, 0.1 mM Sodium Pyruvate, 1×MEM NEAA (ThermoFisher) and 1 mM HEPES. […] Test compounds were dissolved in 100% DMSO and added to a 384 assay plate. […] The plate was then allowed to stabilize for 20 minutes before recording the luminescence (Em filter 700 nm) in an Envision plate reader.
pIC50: −log10 of the molar value.
Measured Endpoint: pIC50

* N[C@@H](Cc1ccc(N(CCCl)CCCl)cc1)C(=O)O [Melphalan, melphalan, reference compound] | 5.37

* * *

Listed here are molecules together with their documented IC50.
System: Toledo
Assay: In vitro cytotoxicity, Toledo (Diffuse Large B Cell Lymphoma)
Type: cell-based
Conditions: Homo sapiens, 72 h, read-out: Cytotoxicity IC50, Toledo
Measured Endpoint: IC50 (nM)

- CCOC(=O)[C@H](Cc1ccc(F)cc1)NC(=O)[C@@H](N)CCc1nc2cc(N(CCCl)CCCl)ccc2n1C: 6.6
- CCOC(=O)[C@H](Cc1nc2cc(N(CCCl)CCCl)ccc2n1C)NC(=O)[C@@H](N)CC(C)C: 8.5
- Cn1c(CCCC(=O)O)nc2cc(N(CCCl)CCCl)ccc21 [Bendamustine, bendamustine, reference compound]: 12500
- CCOC(=O)[C@H](CC(C)C)NC(=O)[C@@H](N)CCc1nc2cc(N(CCCl)CCCl)ccc2n1C: 4.5

* * *

Tested on: MM.1S cells
Assay: In vitro cytotoxic potency in MM.1S cell viability assay (CellTiter-Glo)
Format: cell-based, human
Conditions: Homo sapiens, MM1.S, 72 h, read-out: MM.1S IC50
Experimental: Methods: MM.1S Cells were cultivated in RPMI medium 1640 (IX) supplemented with 10 μg/μL penicillin/streptomycin, 10% heat inactivated FBS, 0.1 mM Sodium Pyruvate, 1×MEM NEAA (ThermoFisher) and 1 mM HEPES. Cells were grown to reach log phase before being exposed to the test compounds. […] Test compounds were dissolved in 100% DMSO and added to a 384 assay plate. […] The plate was then allowed to stabilize for 20 minutes before recording the luminescence (Em filter 700 nm) in an Envision plate reader.
Measured Endpoint: log10 IC50 (log10 of the value in nM)

• CC(C)[C@H](NC(=O)[C@@H](N)CCc1nc2cc(N(CCCl)CCCl)ccc2n1C)C(=O)O [Example 19] = 3.60
• CCOC(=O)[C@H](Cc1ccc(F)cc1)NC(=O)[C@@H](N)Cc1nc2cc(N(CCCl)CCCl)ccc2n1C [Example 5] = 1.35
• CC(C)C[C@H](NC(=O)[C@@H](N)CCc1nc2cc(N(CCCl)CCCl)ccc2n1C)C(=O)OCCN1CCOCC1 [Example 24] = 2.19
• CCOC(=O)[C@H](Cc1ccc(F)cc1)NC(=O)[C@H](CCc1nc2cc(N(CCCl)CCCl)ccc2n1C)NC(C)=O [Example 34] = 1.83
• CC(C)C[C@H](NC(=O)[C@@H](N)CCc1nc2cc(N(CCCl)CCCl)ccc2n1-c1ccccc1)C(=O)O [Example 40] = 3.86
• CCOC(=O)[C@H](CCc1nc2cc(N(CCCl)CCCl)ccc2n1C)NC(=O)[C@@H](N)CC(C)C [Example 7] = 1.36
• CCOC(=O)[C@H](CC(C)C)NC(=O)[C@H](CC(C)C)NC(=O)[C@@H](N)CCc1nc2cc(N(CCCl)CCCl)ccc2n1C [Example 23] = 1.62

* * *

Listed here are compounds together with their documented pIC50.
Tested on: MM.1S cells
Experiment: In vitro cytotoxic potency in MM.1S cell viability assay (CellTiter-Glo)
Assay type: cell-based, human
Details: Homo sapiens, MM1.S, 72 h, read-out: MM.1S IC50
pIC50: −log10 of the molar value.
Measured Endpoint: pIC50

- CCOC(=O)[C@@H](NC(=O)[C@@H](N)Cc1nc2cc(N(CCCl)CCCl)ccc2n1C)C(C)C [Example 6]: 7.01
- CCOC(=O)[C@H](CC(C)C)NC(=O)[C@@H](N)CCc1nc2cc(N(CCCl)CCCl)ccc2n1-c1ccccc1 [Example 13]: 7.31
- CN[C@@H](CCc1nc2cc(N(CCCl)CCCl)ccc2n1C)C(=O)N[C@@H](CC(C)C)C(=O)O [Example 33]: 4.10
- N[C@@H](Cc1ccc(N(CCCl)CCCl)cc1)C(=O)O [Melphalan, melphalan, reference compound]: 5.37

* * *

Listed here are compounds together with their documented IC50.
Test system: MM.1S cells
Assay: In vitro cytotoxic potency in MM.1S cell viability assay (CellTiter-Glo)
Type: cell-based, human
Conditions: Homo sapiens, MM1.S, 72 h, read-out: MM.1S IC50
Procedure: Methods: MM.1S Cells were cultivated in RPMI medium 1640 (IX) supplemented with 10 μg/μL penicillin/streptomycin, 10% heat inactivated FBS, 0.1 mM Sodium Pyruvate, 1×MEM NEAA (ThermoFisher) and 1 mM HEPES. Cells were grown to reach log phase before being exposed to the test compounds. […] Test compounds were dissolved in 100% DMSO and added to a 384 assay plate. […] The plate was then allowed to stabilize for 20 minutes before recording the luminescence (Em filter 700 nm) in an Envision plate reader.
Measured Endpoint: IC50

• CCOC(=O)[C@H](CC(C)C)NC(=O)[C@H](N)CCc1nc2cc(N(CCCl)CCCl)ccc2n1C [Example 46] = 59.1 nM
• CCOC(=O)[C@H](Cc1ccc(F)cc1)NC(=O)[C@H](CC(C)C)NC(=O)[C@@H](N)CCc1nc2cc(N(CCCl)CCCl)ccc2n1C [Example 22] = 31.3 nM
• CCOC(=O)[C@H](CC(C)C)NC(=O)[C@@H](N)Cc1nc2cc(N(CCCl)CCCl)ccc2n1C [Example 4] = 6.6 nM
• CCOC(=O)[C@H](CC(C)C)NC(=O)[C@@H](N)CCc1nc2cc(N(CCCl)CCCl)ccc2n1C [Example 1] = 6.8 nM
• Cn1c(CC[C@H](N)C(=O)N[C@@H](Cc2ccc(F)cc2)C(=O)O)nc2cc(N(CCCl)CCCl)ccc21 [Example 39] = > 2000 nM
